Molecular target: T1, human parathyroid hormone receptor 1, wild-type (hPTHR-1) (human, UniProt Q03431 27-593)
T1 construct: whole, on cells; also called human PTHR-1; PTHR-1-WT
T1 sequence (looked up): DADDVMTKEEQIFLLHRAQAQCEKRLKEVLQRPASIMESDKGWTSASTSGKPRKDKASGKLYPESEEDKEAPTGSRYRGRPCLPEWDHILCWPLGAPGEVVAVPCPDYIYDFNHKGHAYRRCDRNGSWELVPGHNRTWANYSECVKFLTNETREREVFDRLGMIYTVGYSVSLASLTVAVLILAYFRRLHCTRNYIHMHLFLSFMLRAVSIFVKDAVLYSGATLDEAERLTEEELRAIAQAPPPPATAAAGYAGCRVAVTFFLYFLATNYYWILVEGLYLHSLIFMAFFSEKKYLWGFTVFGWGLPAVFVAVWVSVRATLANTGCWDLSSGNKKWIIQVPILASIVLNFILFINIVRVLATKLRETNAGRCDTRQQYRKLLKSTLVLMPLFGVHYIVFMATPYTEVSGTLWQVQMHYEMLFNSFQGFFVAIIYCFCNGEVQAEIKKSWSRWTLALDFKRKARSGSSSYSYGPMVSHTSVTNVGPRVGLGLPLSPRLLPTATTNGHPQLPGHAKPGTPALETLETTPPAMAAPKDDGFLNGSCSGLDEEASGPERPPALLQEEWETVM
Test: R0 state; 125I-PTH(1-34) displacement; COS-7 membranes, hPTHR-1, GTPγS
Non-standard residues stand in square brackets, D forms with d. No end group written: not given here. β3hW = N[C@H](CC(=O)O)Cc1c[nH]c2ccccc12; β3hE = N[C@@H](CCC(=O)O)CC(=O)O; β3hF = N[C@H](CC(=O)O)Cc1ccccc1; β3hK = NCCCC[C@H](N)CC(=O)O; β3hM = CSCC[C@H](N)CC(=O)O; β3hD = NC(CC(=O)O)CC(=O)O
Metric: IC50 (nM)
Expressed in nM, but write only the number.

{"columns": ["Binder", "Readout Units", "IC50"],
 "data": [
  ["SVSEIQLMHNLGKHLNSMERVEWLRKKLQDVQNF-NH2 (not fully specified (residue 32); printed as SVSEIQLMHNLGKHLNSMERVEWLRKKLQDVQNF-NH2; also: three β3 residues, positions not given here in text, also called α/β-peptide B3) [B3]", "nM", 80]
]}

// query IC50 value for entry SVSEIQLMHNLGKWLNSMERVEWLRKKLQDVHNF-NH2 (not fully specified (residue 14); printed as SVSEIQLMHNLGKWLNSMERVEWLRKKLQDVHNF-NH2; also: seven β3 residues, positions not given here in text, also called α/β-peptide D7) [D7]
3.5

Item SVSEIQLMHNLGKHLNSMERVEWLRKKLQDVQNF-NH2 (not fully specified (residues 20, 24, 28, 32); printed as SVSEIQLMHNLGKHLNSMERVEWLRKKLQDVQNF-NH2; also: five β3 residues, positions not given here in text, also called α/β-peptide B5) [B5] has what recorded IC50?
19

Find the recorded IC50 belonging to SVSEIQLMHNLGK[β3hW]LNS[β3hM]ERV[β3hE]WLR[β3hK]KLQ[β3hD]VHN[β3hF]-NH2 (also called α/β-peptide D6) [D6] and report it.
2
